target: rhGBA1 (imiglucerase) (Homo sapiens, UniProt P04062, R534H); construct: purchased Sanofi Genzyme (gift) Cerezyme®; experiment: 4MU fluorogenic substrate assay for apparent IC50, rhGBA1; format: biochemical; conditions: 30 min pre-incubation; 4MU-β-D-Glc; read-out: Apparent IC50 GBA1
Sequence (P04062 40-536 R534H): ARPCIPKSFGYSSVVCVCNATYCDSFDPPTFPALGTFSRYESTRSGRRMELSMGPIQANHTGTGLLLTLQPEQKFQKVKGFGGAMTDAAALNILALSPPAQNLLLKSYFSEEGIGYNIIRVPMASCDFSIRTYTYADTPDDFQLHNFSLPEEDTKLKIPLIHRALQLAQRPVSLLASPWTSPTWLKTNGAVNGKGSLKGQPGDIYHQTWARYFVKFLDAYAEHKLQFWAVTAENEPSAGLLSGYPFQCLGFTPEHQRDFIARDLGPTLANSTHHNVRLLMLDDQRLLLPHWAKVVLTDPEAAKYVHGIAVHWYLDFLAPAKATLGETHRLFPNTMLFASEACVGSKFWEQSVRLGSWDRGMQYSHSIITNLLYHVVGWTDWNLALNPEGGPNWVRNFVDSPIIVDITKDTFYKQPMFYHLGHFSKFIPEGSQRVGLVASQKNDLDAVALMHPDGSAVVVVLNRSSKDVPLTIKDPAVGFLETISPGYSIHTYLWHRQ
observed_property: IC50

Please report IC50 for every entry that follows.
1. O=C(CCCC[C@@H]1SC[C@@H]2NC(=O)N[C@@H]21)NCc1cn(CCCCCCCCN2[C@@H]3[C@H](CO)[C@@H](O)[C@H](O)[C@@H]32)nn1 (some centres unmarked) [ABP 6]
2. OC[C@@H]1[C@@H](O)[C@H](O)[C@@H]2N[C@H]12 [Compound 1, β-D-Arabinofuranosyl cyclitol aziridine]

1: > 8 µM; 2: > 50 µM
